Cited source: ChEMBL document CHEMBL5291721

List of AC50 tested on Muscarinic acetylcholine receptor M3 (Homo sapiens). Note: assay procedure not described here.
Sequence (P20309 whole entry): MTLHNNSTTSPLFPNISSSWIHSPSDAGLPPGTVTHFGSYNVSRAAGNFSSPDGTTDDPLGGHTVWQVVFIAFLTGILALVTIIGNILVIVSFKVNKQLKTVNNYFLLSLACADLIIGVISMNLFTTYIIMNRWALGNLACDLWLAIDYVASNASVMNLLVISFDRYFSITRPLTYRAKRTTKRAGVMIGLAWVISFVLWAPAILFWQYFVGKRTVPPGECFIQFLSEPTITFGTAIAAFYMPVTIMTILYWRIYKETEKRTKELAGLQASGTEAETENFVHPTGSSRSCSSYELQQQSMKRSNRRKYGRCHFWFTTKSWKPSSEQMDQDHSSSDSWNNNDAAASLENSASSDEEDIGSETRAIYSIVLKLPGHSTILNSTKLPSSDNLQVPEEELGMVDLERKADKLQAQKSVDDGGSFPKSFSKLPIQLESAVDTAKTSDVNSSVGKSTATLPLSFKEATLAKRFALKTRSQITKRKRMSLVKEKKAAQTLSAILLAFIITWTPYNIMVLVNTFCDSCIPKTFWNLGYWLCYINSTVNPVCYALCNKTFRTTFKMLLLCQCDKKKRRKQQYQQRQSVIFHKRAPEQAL

Record request: AC50 value, item "Cc1cnc(Nc2ccc(OCCN3CCCC3)cc2)nc1Nc1cccc(S(=O)(=O)NC(C)(C)C)c1"
5.7 µM

AC50 lookup needed for "O=C(Cc1cccs1)N[C@@H]1C(=O)N2C(C(=O)[O-])=C(C[n+]3ccccc3)CS[C@H]12" , thanks.
> 30 µM

Data request, read-out AC50, for "CN(C)[C@@H]1C(O)=C(C(=O)NCN2CCCC2)C(=O)[C@@]2(O)C(O)=C3C(=O)c4c(O)cccc4[C@@](C)(O)[C@H]3C[C@@H]12"
> 10 µM

Entry under review: "CCCCOC(=O)C(=O)Nc1cccc(-c2nnn[nH]2)c1" . Reported AC50?
> 30 µM

====

STUDY_TARGET: Voltage-gated inwardly rectifying potassium channel KCNH2 (Homo sapiens, UniProt Q12809); note: assay procedure not described here
Sequence (Q12809 whole entry): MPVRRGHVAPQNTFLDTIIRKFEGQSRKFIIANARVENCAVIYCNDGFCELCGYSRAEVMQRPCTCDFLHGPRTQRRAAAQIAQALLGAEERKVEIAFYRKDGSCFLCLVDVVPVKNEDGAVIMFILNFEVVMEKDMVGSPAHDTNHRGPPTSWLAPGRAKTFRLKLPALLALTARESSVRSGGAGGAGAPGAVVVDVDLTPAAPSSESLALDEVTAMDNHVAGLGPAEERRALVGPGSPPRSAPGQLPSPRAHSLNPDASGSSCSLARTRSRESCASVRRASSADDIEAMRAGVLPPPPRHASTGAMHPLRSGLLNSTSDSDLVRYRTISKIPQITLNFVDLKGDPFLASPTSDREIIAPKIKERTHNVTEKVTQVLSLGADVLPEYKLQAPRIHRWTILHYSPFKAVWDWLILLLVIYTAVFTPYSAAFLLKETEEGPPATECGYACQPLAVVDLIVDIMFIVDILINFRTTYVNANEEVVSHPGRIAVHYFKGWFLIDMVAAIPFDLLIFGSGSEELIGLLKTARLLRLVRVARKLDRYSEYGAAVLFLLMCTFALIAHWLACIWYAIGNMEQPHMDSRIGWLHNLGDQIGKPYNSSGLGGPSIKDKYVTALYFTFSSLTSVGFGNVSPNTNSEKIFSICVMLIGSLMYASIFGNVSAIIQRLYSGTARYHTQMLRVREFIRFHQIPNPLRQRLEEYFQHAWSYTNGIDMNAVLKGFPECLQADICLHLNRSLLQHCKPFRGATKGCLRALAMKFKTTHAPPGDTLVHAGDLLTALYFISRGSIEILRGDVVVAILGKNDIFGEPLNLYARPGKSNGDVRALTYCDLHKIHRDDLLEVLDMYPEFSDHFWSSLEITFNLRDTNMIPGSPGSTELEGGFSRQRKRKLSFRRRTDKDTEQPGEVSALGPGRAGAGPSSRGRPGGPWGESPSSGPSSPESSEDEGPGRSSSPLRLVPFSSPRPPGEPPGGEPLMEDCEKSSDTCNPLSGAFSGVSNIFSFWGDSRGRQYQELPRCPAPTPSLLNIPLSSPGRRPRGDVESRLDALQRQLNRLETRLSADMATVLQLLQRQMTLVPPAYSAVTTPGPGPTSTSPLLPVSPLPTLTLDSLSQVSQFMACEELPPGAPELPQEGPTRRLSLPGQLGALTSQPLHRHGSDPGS
Type: functional
ASSAY_CONTEXT: read-out: AC50; note: assay procedure not described here
Please provide measured AC50 for the entries that follow.
The answer is to be given in µM; state only the numeric part.

Give its AC50 value. Item: CCN(CC)C(C)C(=O)c1ccccc1 (stereo not given)
6.5

I am curious: what AC50 value has been reported for "C[C@@H](Cc1ccccc1)N(C)Cc1ccccc1" ?
14.5

Quick check: AC50 of CC(C)N1CCN(c2ccc(OCC3COC(Cn4cncn4)(c4ccc(Cl)cc4Cl)O3)cc2)CC1 (stereo not given) ?
6.9

Tell me the measured AC50 of "O=c1[nH]c2ccccc2n1CCN1CCN(c2cccc(C(F)(F)F)c2)CC1" , please.
13

====

AC50, UniProtKB P32245, per-entry values.
Sequence (P32245 whole entry): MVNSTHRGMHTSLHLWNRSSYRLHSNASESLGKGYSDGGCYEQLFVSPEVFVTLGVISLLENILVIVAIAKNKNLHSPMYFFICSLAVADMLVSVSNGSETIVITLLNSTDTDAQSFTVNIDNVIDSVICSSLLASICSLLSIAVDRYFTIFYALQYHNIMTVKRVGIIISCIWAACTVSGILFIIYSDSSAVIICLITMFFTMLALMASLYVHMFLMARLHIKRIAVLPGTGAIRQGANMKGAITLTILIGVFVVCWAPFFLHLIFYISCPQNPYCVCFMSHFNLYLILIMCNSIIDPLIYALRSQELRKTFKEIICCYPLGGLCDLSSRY

Consider the compound shown here: CCOc1ccccc1OCCN[C@H](C)Cc1ccc(OC)c(S(N)(=O)=O)c1 [TAMSULOSIN] What is its recorded AC50?
> 30 µM

Form field: reported AC50 of CCN(C(C)=O)c1cccc(-c2ccnc3c(C#N)cnn23)c1 [ZALEPLON]
> 30 µM

May I ask what AC50 has been recorded for N=C(N)NC(=O)c1nc(Cl)c(N)nc1N [AMILORIDE] ?
> 30 µM

Item under review: NCCCCCC(=O)O [AMINOCAPROIC ACID] . Reported AC50?
> 10 µM

Can you look up the measured AC50 of "C=CC1=C(C(=O)O)N2C(=O)[C@@H](NC(=O)/C(=N\O)c3csc(N)n3)[C@H]2SC1" for me?
> 30 µM

====

STUDY_TARGET: 5-hydroxytryptamine receptor 3A (Homo sapiens, UniProt P46098); note: assay procedure not described here
Sequence (P46098 whole entry): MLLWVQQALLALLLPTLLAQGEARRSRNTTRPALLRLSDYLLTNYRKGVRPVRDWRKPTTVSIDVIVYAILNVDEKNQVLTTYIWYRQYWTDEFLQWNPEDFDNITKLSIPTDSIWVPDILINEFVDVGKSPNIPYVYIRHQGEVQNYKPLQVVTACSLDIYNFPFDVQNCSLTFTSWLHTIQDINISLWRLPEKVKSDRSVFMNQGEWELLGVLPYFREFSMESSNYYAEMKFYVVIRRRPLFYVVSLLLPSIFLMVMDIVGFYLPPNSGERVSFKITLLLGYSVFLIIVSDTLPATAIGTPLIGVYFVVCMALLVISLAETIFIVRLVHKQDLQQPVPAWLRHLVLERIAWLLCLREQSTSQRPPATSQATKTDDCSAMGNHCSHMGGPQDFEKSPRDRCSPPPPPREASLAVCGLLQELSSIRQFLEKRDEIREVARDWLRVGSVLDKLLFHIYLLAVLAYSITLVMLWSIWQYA
Assay type: functional
Consider the following compounds; for each one, report its AC50.

Which AC50 value is on record for O=C(Cc1cccs1)N[C@@H]1C(=O)N2C(C(=O)[O-])=C(C[n+]3ccccc3)CS[C@H]12 [CEPHALORIDINE] ?
> 30 µM

Name the recorded AC50 for Cn1cnc2c(F)c(Nc3ccc(Br)cc3F)c(C(=O)NOCCO)cc21 [BINIMETINIB] .
> 30 µM

Give the measured AC50 of CCN(CC)C(C)C(=O)c1ccccc1 (stereo not drawn) [DIETHYLPROPION] .
> 30 µM

// AC50 lookup, key: "C=CC1=C(C(=O)O)N2C(=O)[C@@H](NC(=O)/C(=N\O)c3csc(N)n3)[C@H]2SC1"
> 30 µM

# input compound: COc1ccc2c3c1O[C@H]1C(=O)CC[C@H]4[C@@H](C2)N(C)CC[C@]314 [HYDROCODONE] ; wanted: its AC50
> 30 µM

# lookup: AC50 of "CCOC(=O)[C@H](CCc1ccccc1)N[C@@H](C)C(=O)N1Cc2ccccc2C[C@H]1C(=O)O"
> 10 µM

Could you tell me which AC50 is on file for CCOc1ccccc1OCCN[C@H](C)Cc1ccc(OC)c(S(N)(=O)=O)c1 [TAMSULOSIN] ?
> 30 µM

Which AC50 value is on record for CCN(CC)CCn1c(=O)c(Cc2ccc(OC)cc2)nc2ccccc21 [CAROVERINE] ?
29 µM

Which AC50 reading was recorded for the compound O=C1CN=C(c2ccccc2Cl)c2cc([N+](=O)[O-])ccc2N1 [CLONAZEPAM] ?
> 30 µM

Requested field: AC50. Item: COC(=O)c1ccc2c(c1)NC(=O)/C2=C(\Nc1ccc(N(C)C(=O)CN2CCN(C)CC2)cc1)c1ccccc1 [NINTEDANIB]
> 30 µM

Item CC[N+](CC)(CCNC(=O)C(=O)NCC[N+](CC)(CC)Cc1ccccc1Cl)Cc1ccccc1Cl [AMBENONIUM] has what recorded AC50?
> 30 µM

Query: AC50; subject: CCN(CC)Cc1nccn1-c1ccc([N+](=O)[O-])cc1C(=O)c1ccccc1Cl [NIZOFENONE]
> 30 µM

Entry under review: CC(=O)NC[C@H]1CN(c2ccc(N3CCOCC3)c(F)c2)C(=O)O1 [LINEZOLID] . Reported AC50?
> 30 µM

What value of AC50 has been reported for the following compound? CCN(C(C)=O)c1cccc(-c2ccnc3c(C#N)cnn23)c1 [ZALEPLON]
> 30 µM

Fill in the blank: the reported AC50 of CCCCOC(=O)C(=O)Nc1cccc(-c2nnn[nH]2)c1 [TAZANOLAST] is ____.
> 30 µM

Form field: reported AC50 of CCC(=O)c1ccc2c(c1)N(CC(C)N(C)C)c1ccccc1S2 (stereo not drawn) [PROPIOMAZINE]
> 30 µM

Please look up its AC50: C#CCN(C)Cc1ccccc1 [PARGYLINE]
> 30 µM

Name the reported AC50 value associated with the compound "NS(=O)(=O)c1ccc(N2CCCCS2(=O)=O)cc1"
> 30 µM

====

Consider the following compounds; for each one, report its AC50.

Provide value of AC50 for this record tested with UniProtKB P08908: "CCOc1ccc(Cc2nccc3cc(OCC)c(OCC)cc23)cc1OCC"
Sequence (P08908 whole entry): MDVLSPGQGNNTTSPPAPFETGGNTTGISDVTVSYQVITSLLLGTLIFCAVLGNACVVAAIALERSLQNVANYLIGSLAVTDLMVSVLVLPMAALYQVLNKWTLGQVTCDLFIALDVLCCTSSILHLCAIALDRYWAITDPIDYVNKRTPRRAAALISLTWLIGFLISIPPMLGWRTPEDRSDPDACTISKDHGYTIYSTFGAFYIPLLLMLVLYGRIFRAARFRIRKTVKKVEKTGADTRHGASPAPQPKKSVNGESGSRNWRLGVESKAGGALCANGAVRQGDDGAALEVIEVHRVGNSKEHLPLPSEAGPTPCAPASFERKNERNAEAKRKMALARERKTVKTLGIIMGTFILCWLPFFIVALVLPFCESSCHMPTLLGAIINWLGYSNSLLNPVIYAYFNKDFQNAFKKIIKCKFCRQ
> 30 µM

Lab request: please report AC50 under test system UniProtKB P08908 for CNC(=O)c1cnn(-c2nc(N)c3ncn([C@@H]4O[C@H](CO)[C@@H](O)[C@H]4O)c3n2)c1 [REGADENOSON ANHYDROUS]
> 30 µM

Give the reported AC50 for "CC1=C(C/C=C(\C)CCC[C@H](C)CCC[C@H](C)CCCC(C)C)C(=O)c2ccccc2C1=O" (system: UniProtKB P08908).
> 30 µM

What is its AC50 for UniProtKB P08908? Entry: CNC1(c2ccccc2Cl)CCCCC1=O (stereo unspecified)
> 30 µM

Hello, I am looking for reported AC50 with UniProtKB P08908 for "NC(=O)N/N=C/c1ccc([N+](=O)[O-])o1" . Could you help?
> 30 µM

# value lookup — system UniProtKB P08908, readout AC50, item CN1CCc2c(c3ccccc3n2Cc2ccccc2)C1 [MEBHYDROLIN]
1.04 µM

For the record "CN1CCC(N(Cc2cccs2)c2ccccc2)CC1" , what value of AC50 is listed for UniProtKB P08908?
8.65 µM

Kindly state the measured AC50 obtained for "O=NN(CCCl)C(=O)NC1CCCCC1" with UniProtKB P08908.
> 30 µM

Query for UniProtKB P08908: what AC50 does the record show for CC(=O)OC1CN2CCC1CC2 (stereo unspecified) ?
> 30 µM

Can you look up AC50 on UniProtKB P08908 for OC(CN1CCCCC1)c1cc(-c2ccccc2)on1 (stereo unspecified) ?
> 30 µM

Query the reported AC50 for UniProtKB P08908; item: "COC(=O)Nc1nc2cc(C(=O)c3ccc(F)cc3)ccc2[nH]1"
> 30 µM

====

For each entry below, report its AC50 value.

Form entry - test system: Glutamate receptor ionotropic, NMDA 1 (Rattus norvegicus, UniProt P35439); read-out: AC50; compound: COC(=O)CCc1ccc(OCC(O)CNC(C)C)cc1 (centres undefined); note: assay procedure not described here
> 30 µM

Can you look up AC50 on Glutamate receptor ionotropic, NMDA 1 (Rattus norvegicus, UniProt P35439) for CN(C)CCOC(c1ccc(Cl)cc1)c1ccccn1 (centres undefined) ?
> 30 µM

What measured AC50 is associated with CCOC(=O)O[C@]1(C(=O)COC(=O)CC)CC[C@H]2[C@@H]3CCC4=CC(=O)C=C[C@]4(C)[C@H]3[C@@H](O)C[C@@]21C [PREDNICARBATE] on Glutamate receptor ionotropic, NMDA 1 (Rattus norvegicus, UniProt P35439)?
> 10 µM

Missing value: AC50, Glutamate receptor ionotropic, NMDA 1 (Rattus norvegicus, UniProt P35439), entry "C[C@]12CCC(=O)C=C1C=C[C@@H]1[C@@H]2CC[C@@]2(C)[C@H]1CC[C@@]21CCC(=O)O1" . Fill in?
> 30 µM

Param readout= AC50; system= Glutamate receptor ionotropic, NMDA 1 (Rattus norvegicus, UniProt P35439); entry= "COC(=O)c1ccc2c(c1)NC(=O)/C2=C(\Nc1ccc(N(C)C(=O)CN2CCN(C)CC2)cc1)c1ccccc1" ; returns value. Note: assay procedure not described here.
> 30 µM

Kindly state the measured AC50 obtained for "NCC1(CC(=O)O)CCCCC1" with Glutamate receptor ionotropic, NMDA 1 (Rattus norvegicus, UniProt P35439).
> 10 µM

Request - read-out AC50 | tested on Glutamate receptor ionotropic, NMDA 1 (Rattus norvegicus, UniProt P35439) | compound "CCCCOC(=O)C(=O)Nc1cccc(-c2nnn[nH]2)c1"
> 30 µM

Any idea what AC50 came out for CC1NCCOC1c1ccccc1 (centres undefined) on Glutamate receptor ionotropic, NMDA 1 (Rattus norvegicus, UniProt P35439)?
> 10 µM

Query the reported AC50 for Glutamate receptor ionotropic, NMDA 1 (Rattus norvegicus, UniProt P35439); item: CN(C)CCCC1(c2ccc(F)cc2)OCc2cc(C#N)ccc21 (centres undefined)
> 10 µM
